Attribution: PubChem BioAssay (NCI)

Test system: SF-268 CNS
procedure text: NCI tumour cell line growth inhibition, 48 h
Assignment: determine reported GI50 for the given molecules.

Prompt: Which GI50 reading was recorded for the molecule "COc1cc2c3c(n(CCCN4CCNCC4)c(=O)c2cc1OC)-c1cc2c(cc1C3=O)OCO2" ?
Completion: 795 nM

Prompt: Which GI50 reading was recorded for the molecule "Cc1ccc([P+](Cc2ccccc2)(c2ccccc2)c2ccccc2)cc1" ?
Completion: 3660 nM

Prompt: Which GI50 reading was recorded for the molecule O=C(/C=C/C12c3ccccc3C(c3ccccc31)C1C(=O)N(c3ccc(Cl)cc3)C(=O)C12)c1ccccn1 (stereo not drawn) ?
Completion: 672 nM

* * *

Assignment: determine reported TGI for the given compounds.
System: SF-268 CNS
procedure text: NCI tumour cell line growth inhibition, 48 h

Prompt: Please tell me: TGI of "O=P(O)(O)c1ccc(-c2ccc(I)cc2)cc1" , system SF-268 CNS?
Completion: > 100 µM

Prompt: Please tell me: TGI of CC(=O)OCC1OC(n2cnc3nc(Br)[nH]c(=O)c32)C(OC(C)=O)C1OC(C)=O (stereo not given) , system SF-268 CNS?
Completion: > 100 µM

Prompt: Please tell me: TGI of "O=C1C=C(Nc2ccccc2C(=O)CC(=O)C(=O)Nc2ccc(Cl)cc2)c2ccccc2C1=O" , system SF-268 CNS?
Completion: 57.5 µM

Prompt: Please tell me: TGI of "CNC(=O)N(CCC#N)CCN(C(=O)NC)c1ccccc1" , system SF-268 CNS?
Completion: > 100 µM

Prompt: Please tell me: TGI of "COC(=O)c1cc(NC(=O)c2cc(NC(=O)c3cc([N+](=O)[O-])n(C)c3)cn2C)cn1C" , system SF-268 CNS?
Completion: > 100 µM

Prompt: Please tell me: TGI of "O=C1Nc2ccccc2/C1=C\c1c(-c2ccccc2)nc2sccn12" , system SF-268 CNS?
Completion: 57.1 µM

Prompt: Please tell me: TGI of COc1cccc2c1OC1Sc3ccccc3-c3nn(-c4ccccc4)c-2c31 (stereo not given) , system SF-268 CNS?
Completion: > 100 µM

Prompt: Please tell me: TGI of "CN(c1ccccc1)S(=O)(=O)c1ccc([N+](=O)[O-])cc1" , system SF-268 CNS?
Completion: > 100 µM

Prompt: Please tell me: TGI of "O=c1cc(-c2ccccc2)[nH]c2ncccc12" , system SF-268 CNS?
Completion: > 100 µM

Prompt: Please tell me: TGI of "Cc1ccc(-c2nc3nc(-c4ccc(F)cc4)nc(N4CCNCC4)c3o2)cc1" , system SF-268 CNS?
Completion: 4.35 µM

* * *

Tested on: NCI-H23 lung
procedure text: NCI tumour cell line growth inhibition, 48 h; in the data active = GI50 below about 0.43 µM; inactive = the rest
Returns: one label drawn from 1 for active, -1 for inactive

Prompt: Tell me the recorded outcome of this test for "COc1ccc(/C=C/C(=O)c2c(O)ccc3c(C)c(C(=O)O)oc23)cc1" .
Completion: -1

Prompt: Tell me the recorded outcome of this test for O=C(/C=C/C12c3ccccc3C(c3ccccc31)C1C(=O)N(c3ccc(Cl)cc3)C(=O)C12)c1ccccn1 (stereo not given) .
Completion: 1

Prompt: Tell me the recorded outcome of this test for "C/C(CCC(=O)O)=N/Nc1ccc([N+](=O)[O-])cc1" .
Completion: -1

Prompt: Tell me the recorded outcome of this test for CC1CCC2C(C)C(=O)OC3OC4(C)CCC1C32OO4 (stereo not given) .
Completion: -1

Prompt: Tell me the recorded outcome of this test for "O=C(Cn1c(C(=O)c2ccc(Cl)cc2)nc(-c2ccc(Cl)cc2)c1-c1ccc(Cl)cc1)c1ccccc1" .
Completion: -1

Prompt: Tell me the recorded outcome of this test for "CN(C)C1CCN(Cc2ccc(NC(=O)c3cncc(C#Cc4cnc(N)c5ncccc45)c3)cc2C(F)(F)F)CC1" .
Completion: -1

Prompt: Tell me the recorded outcome of this test for COC1=CC(c2ccc[nH]2)=N/C1=C\c1[nH]c(C)c(C(=O)CCC(=O)Oc2ccc3c(c2)CCC2C3CC[C@]3(C)[C@@H](O)CC[C@@H]23)c1C (stereo not given in full) .
Completion: -1

Prompt: Tell me the recorded outcome of this test for Oc1c(C(Nc2ccccn2)c2cccc(Oc3ccccc3)c2)ccc2cccnc12 (stereo not given) .
Completion: -1

Prompt: Tell me the recorded outcome of this test for "NC(=O)c1cccc2c(N[C@H](CN3CCC3)c3ccc(Cl)c(C(F)(F)F)c3)ncnc12" .
Completion: -1

Prompt: Tell me the recorded outcome of this test for "CCCCCCCCCCCCCC[n+]1ccccc1" .
Completion: -1

* * *

System: SF-539 CNS
procedure text: NCI tumour cell line growth inhibition, 48 h
measure: TGI (µM)
Report the value in µM with no unit label.

Prompt: Which TGI reading was recorded for the molecule "O=C(CCCn1c2c(sc3ccccc32)c(=O)n2nnc(-c3ccccc3)c12)NCCc1cnc[nH]1" ?
Completion: 0.111

Prompt: Which TGI reading was recorded for the molecule "ClCCCSSCCCCl" ?
Completion: 48.8

Prompt: Which TGI reading was recorded for the molecule "COC(=O)Cc1c([C@@]2(C)CCCC(C)(C)C2)ccc2c1C(=O)OC2" ?
Completion: 31.6

Prompt: Which TGI reading was recorded for the molecule O=C(c1ccccc1)C(Cl)C(Cl)c1ccccc1 (configuration not stated) ?
Completion: 10.2

Prompt: Which TGI reading was recorded for the molecule O=C(/C=C/C12c3ccccc3C(c3ccccc31)C1C(=O)N(c3ccc(Cl)cc3)C(=O)C12)c1ccccn1 (configuration not stated) ?
Completion: 0.676

Prompt: Which TGI reading was recorded for the molecule "N#Cc1c(N)oc(-c2ccc([N+](=O)[O-])cc2)c1C#N" ?
Completion: 48.3

Prompt: Which TGI reading was recorded for the molecule "COc1ccc(-c2cc(/C=C3\C(=O)Nc4cc(Cl)ccc43)[nH]n2)cc1" ?
Completion: 7.52

Prompt: Which TGI reading was recorded for the molecule "CC1=C/C=C/C(=O)O[C@@H]([C@H](C)[C@H](O)[C@@H](C)NC(=O)C(C)C)[C@H](C)/C=C/C(C)=C/[C@H]2C=CCC[C@@]2(C)\C=C\1" ?
Completion: 5.3

Prompt: Which TGI reading was recorded for the molecule "CCCCCCCCCCNCCSSCc1ccc(Cl)cc1" ?
Completion: 3.64

* * *

Tested on: MDA-N
procedure text: NCI tumour cell line growth inhibition, 48 h
Where a SMILES comes first, the peptide text is derived from it. The star is where a group is joined. Boc = CC(C)(C)OC(=O)*
measure: TGI

Prompt: Which TGI reading was recorded for the compound CC1CCCC(C(=O)CC2CC(=O)NC(=O)C2)C1=O (stereo not given) ?
Completion: > 100 µM

Prompt: Which TGI reading was recorded for the compound "CSc1cc(Cl)c(C)cc1S(=O)(=O)NC(=O)NNc1ccc(F)cc1" ?
Completion: > 100 µM

Prompt: Which TGI reading was recorded for the compound "O=C(CN1CCCC1=O)CS(=O)(=O)c1ccccc1" ?
Completion: > 100 µM

Prompt: Which TGI reading was recorded for the compound "COc1cc(CC(C)=O)cc(OC)c1" ?
Completion: 76.9 µM

Prompt: Which TGI reading was recorded for the compound "Cn1c(-c2ccc(-c3cc(-c4cccs4)c(-c4cccs4)n3C)cc2)cc(-c2cccs2)c1-c1cccs1" ?
Completion: > 100 µM

Prompt: Which TGI reading was recorded for the compound "N#CC(C#N)=NNc1ccc2cn[nH]c2c1" ?
Completion: > 100 µM

Prompt: Which TGI reading was recorded for the compound COC(=O)C(Cc1ccccc1)NC(=O)C(CS)NC(=O)OC(C)(C)C (stereo not drawn) (Boc-Cys-Phe-OMe; configuration not given here) ?
Completion: > 100 µM

Prompt: Which TGI reading was recorded for the compound Cc1c(Cc2ccccc2)n(C(C)OCCN(OC(=O)Oc2ccccc2)C(=O)Oc2ccccc2)c(=O)[nH]c1=O (stereo not given) ?
Completion: 41.4 µM

Prompt: Which TGI reading was recorded for the compound "N#Cc1c(N)oc(-c2ccc([N+](=O)[O-])cc2)c1C#N" ?
Completion: > 100 µM

Prompt: Which TGI reading was recorded for the compound Cc1ccc(S(=O)(=O)N2CCC[C@@H]2C(=O)O[C@@H]2CCC3CC=CC32)cc1 (stereo not given in full) ?
Completion: 78.6 µM

* * *

Assignment: determine reported TGI for the given molecules.
Test system: LOX IMVI melanoma
procedure text: NCI tumour cell line growth inhibition, 48 h
Report the value in µM with no unit label.

Prompt: Which TGI reading was recorded for the molecule "O=C(c1ccccc1)N1CCN(C(=S)NC2CCCCC2)C1=S" ?
Completion: 31.1

Prompt: Which TGI reading was recorded for the molecule O=C(COc1ccccc1Cl)N1N=C(c2ccccc2)CC1(O)c1ccccc1 (stereo not given) ?
Completion: 30.4

Prompt: Which TGI reading was recorded for the molecule "CC(=O)C1=C(C)O[C@@H]2O[C@H](COCc3ccccc3)[C@@H](OCc3ccccc3)[C@H](O)[C@@H]2S1" ?
Completion: 38.9

Prompt: Which TGI reading was recorded for the molecule "CN(C)C(=O)Oc1c(Br)cc(Br)cc1C(=O)OCc1ccccc1" ?
Completion: 60.2
